- System: A549 NSCLC
- METHOD_NOTES: NCI tumour cell line growth inhibition, 48 h
Each record here notes measured TGI.
ASSAY_ENDPOINT: TGI

{"columns": ["CHEMICAL_STRING", "RESULT"],
 "data": [
  ["COC(=O)c1[nH]nc(-c2ccccc2)c1N1CCCCC1", "> 100 µM"],
  ["C=C1C(=O)[C@]23[C@H](O)[C@H]1CC[C@H]2[C@@]12CO[C@@]3(O)C[C@@H]1C(C)(C)CC[C@@H]2O", "> 25 µM"],
  ["CC1=CC(=O)c2cccc(NC3=NCCO3)c21", "> 100 µM"]
]}
